// provenance: patent EP0311100A2

assay: stability in methanol/water (HPLC); type: physicochemical; settings: time 14 days
Metric Name: % N-Acyl (2a,2b, 2c) (%)
Field format: number, assumed %, no unit text.

Record excerpt, results attached:
Compound Smiles | % N-Acyl (2a,2b, 2c), %
CC(C)C(=O)Nc1ccn([C@H]2CC[C@@H](COC(=O)C(C)C)O2)c(=O)n1 | 8
CCC(=O)Nc1ccn([C@H]2CC[C@@H](CO)O2)c(=O)n1 | 56
CCCC(=O)Nc1ccn([C@H]2CC[C@@H](COC(=O)CCC)O2)c(=O)n1 | 20
CCCC(=O)Nc1ccn([C@H]2CC[C@@H](CO)O2)c(=O)n1 | 76

Task item: // returns reported % N-Acyl (2a,2b, 2c) for input CC(C)C(=O)Nc1ccn([C@H]2CC[C@@H](CO)O2)c(=O)n1
Reply: 83

Task item: // returns reported % N-Acyl (2a,2b, 2c) for input CCC(=O)Nc1ccn([C@H]2CC[C@@H](COC(=O)CC)O2)c(=O)n1
Reply: 18

* * *

# % ddC 4 listing for each entry below
assay: stability in methanol/water (HPLC); assay type: physicochemical; conditions: time 14 days
Field format: number, assumed %, no unit text.

Compound | % ddC 4 (%)
CCCC(=O)Nc1ccn([C@H]2CC[C@@H](CO)O2)c(=O)n1 [Verbindung 2c, N-Butanoyl 2′,3′-dideoxycytidin] | 20

We now examine a further compound.
Task item: // returns reported % ddC 4 for input CC(C)C(=O)Nc1ccn([C@H]2CC[C@@H](CO)O2)c(=O)n1 [Verbindung 2b]
Reply: 2

* * *

# Scheinbarer Verteilungskoeffizient zwischen n-Octanol und Phosphatpuffer pH 7,4 listing for each entry below
assay: apparent partition coefficient n-octanol / phosphate buffer pH 7,4 (method of Hansch et al.); format: physicochemical; conditions: n-octanol / aqueous phosphate buffer pH 7,4
Give only the figure.

Record excerpt, results attached:
Compound | Experimental Value
CC(=O)Nc1ccn([C@H]2CC[C@@H](CO)O2)c(=O)n1 [N-Acetyl 2′,3′-dideoxycytidin] | 0.22
Nc1ccn([C@H]2CC[C@@H](CO)O2)c(=O)n1 [2′,3′-Dideoxycytidin, reference compound] | 0.05
CC(=O)Nc1ccn([C@H]2CC[C@@H](COC(C)=O)O2)c(=O)n1 [N-Acetyl 2′,3′-dideoxycytidin 5′-acetat] | 0.62

We now examine a further compound.
Task item: // returns reported Scheinbarer Verteilungskoeffizient zwischen n-Octanol und Phosphatpuffer pH 7,4 for input CCC(=O)Nc1ccn([C@H]2CC[C@@H](CO)O2)c(=O)n1 [Verbindung 2a, N-Propanoyl 2′,3′-dideoxycytidin]
Reply: 0.83

* * *

test: stability in methanol/water (HPLC); type: physicochemical; details: time 14 days
# % O-Acyl- (3a,3b,3c) listing for each entry below

Record excerpt, results attached:
Compound | Metric Name | Experimental Value
CC(C)C(=O)Nc1ccn([C@H]2CC[C@@H](CO)O2)c(=O)n1 [Verbindung 2b] | % O-Acyl- (3a,3b,3c) | 17%
CC(C)C(=O)Nc1ccn([C@H]2CC[C@@H](COC(=O)C(C)C)O2)c(=O)n1 [Verbindung 1b] | % O-Acyl- (3a,3b,3c) | 17%
CCCC(=O)Nc1ccn([C@H]2CC[C@@H](COC(=O)CCC)O2)c(=O)n1 [Verbindung 1c] | % O-Acyl- (3a,3b,3c) | 32%

We now examine a further compound.
Task item: // returns reported % O-Acyl- (3a,3b,3c) for input CCC(=O)Nc1ccn([C@H]2CC[C@@H](COC(=O)CC)O2)c(=O)n1 [Verbindung 1a]
Reply: 27%
